Molecular target: human PF4 (Homo sapiens, UniProt P02776)
Construct: PF4 is a 70 amino acid, lysine-rich 7.8 kDa platelet-specific protein; made in house; host or cells: Escherichia coli BL21DE3 pLysS (pT7-7) and/or Drosophila S2 cells
Assay: Inhibition of PF4 tetramer formation (BS3 cross-linking, SDS-PAGE)
Format: biochemical
Settings: 10 μM inhibitor (column A); read-out: % inhibition of PF4 tetramer formation at single concentration of inhibitor
experimentalEndpoint: inhibition at 10 µM (%)
Lab book: enter the figure in %, no units written.

# example entries with known answers
{"columns": ["molecule", "studySystem", "valueReported"],
 "data": [
  ["O=C(NCC1CCCO1)C1C(=O)c2ccc(S(=O)(=O)c3ccc4c(c3)C(=O)C(C(=O)NCC3CCCO3)C4=O)cc2C1=O (stereo not drawn) [Example 89]", "human PF4 (Homo sapiens, UniProt P02776)", 66],
  ["O=C(Nc1cccc(Cl)c1)C1C(=O)c2ccc(S(=O)(=O)c3ccc4c(c3)C(=O)C(C(=O)Nc3cccc(Cl)c3)C4=O)cc2C1=O (stereo not drawn) [Example 86]", "human PF4 (Homo sapiens, UniProt P02776)", 90],
  ["O=C(c1ccc2c(c1)C(=O)C(C(=O)NCCCc1ccccc1)C2=O)c1ccc2c(c1)C(=O)C(C(=O)NCCCc1ccccc1)C2=O (stereo not drawn) [Example 24]", "human PF4 (Homo sapiens, UniProt P02776)", 89],
  ["O=C(c1ccc2c(c1)C(=O)C(C(=O)NCc1ccc(F)cc1)C2=O)c1ccc2c(c1)C(=O)C(C(=O)NCc1ccc(F)cc1)C2=O (stereo not drawn) [Example 26]", "human PF4 (Homo sapiens, UniProt P02776)", 66],
  ["COCCNC(=O)C1C(=O)c2ccc(S(=O)(=O)c3ccc4c(c3)C(=O)C(C(=O)NCCOC)C4=O)cc2C1=O (stereo not drawn) [Example 73]", "human PF4 (Homo sapiens, UniProt P02776)", 0]
]}

(Q) Give recorded inhibition at 10 µM. O=C(c1ccc2c(c1)C(=O)C(C(=O)NC1CCOCC1)C2=O)c1ccc2c(c1)C(=O)C(C(=O)NC1CCOCC1)C2=O (stereo not drawn) [Example 72]
(A) 52

----------
Target: human PF4 (Homo sapiens, UniProt P02776)
Construct: PF4 is a 70 amino acid, lysine-rich 7.8 kDa platelet-specific protein; made in house; host or cells: Escherichia coli BL21DE3 pLysS (pT7-7) and/or Drosophila S2 cells
Experiment: Inhibition of PF4 tetramer formation (BS3 cross-linking, SDS-PAGE)
Type: biochemical
Conditions: read-out: IC50 of PF4 tetramer formation inhibition
pIC50 values, listed per item
By convention, pIC50 is the negative base-10 log of a molar concentration.

# example entries with known answers
{"columns": ["compound", "pIC50"],
 "data": [
  ["COCCOCCNC(=O)C1C(=O)c2ccc(S(=O)(=O)c3ccc4c(c3)C(=O)C(C(=O)NCCOCCOC)C4=O)cc2C1=O (stereo not shown)", 5.96],
  ["CC(C)(C)OC(=O)N[C@@H](CC(=O)O)C(=O)C1C(=O)c2ccc(C(=O)c3ccc4c(c3)C(=O)C(C(=O)[C@H](CC(=O)O)NC(=O)OC(C)(C)C)C4=O)cc2C1=O (stereo partly shown)", 5.64],
  ["CC(=O)C1C(=O)c2ccc(-c3ccc4c(c3)C(=O)C(C(C)=O)C4=O)cc2C1=O (stereo not shown)", 5.87],
  ["O=C(c1ccc2c(c1)C(=O)C(C(=O)COc1ccccc1)C2=O)c1ccc2c(c1)C(=O)C(C(=O)COc1ccccc1)C2=O (stereo not shown)", 5.15],
  ["O=C(c1ccc2c(c1)C(=O)C(C(=O)Nc1ccc(I)cc1)C2=O)c1ccc2c(c1)C(=O)C(C(=O)Nc1ccc(I)cc1)C2=O (stereo not shown)", 5.55]
]}

(Q) Give recorded pIC50. Cc1ccccc1C(=O)CCC(=O)C1C(=O)c2ccc(C(=O)c3ccc4c(c3)C(=O)C(C(=O)CCC(=O)c3ccccc3C)C4=O)cc2C1=O (stereo not shown)
(A) 5.52

(Q) Give recorded pIC50. CSCC(=O)C1C(=O)c2ccc(C(=O)c3ccc4c(c3)C(=O)C(C(=O)CSC)C4=O)cc2C1=O (stereo not shown)
(A) 5.00

(Q) Give recorded pIC50. CC(C)(C)OC(=O)N[C@@H](Cc1ccccc1)C(=O)C1C(=O)c2ccc(S(=O)(=O)c3ccc4c(c3)C(=O)C(C(=O)[C@H](Cc3ccccc3)NC(=O)OC(C)(C)C)C4=O)cc2C1=O (stereo partly shown)
(A) 5.85

(Q) Give recorded pIC50. CCCCC(=O)C1C(=O)c2ccc(S(=O)(=O)c3ccc4c(c3)C(=O)C(C(=O)CCCC)C4=O)cc2C1=O (stereo not shown)
(A) 5.92

(Q) Give recorded pIC50. CC(=O)C1C(=O)c2ccc(Oc3ccc4c(c3)C(=O)C(C(C)=O)C4=O)cc2C1=O (stereo not shown)
(A) 4.28

(Q) Give recorded pIC50. CC(C)(C)OCC(=O)C1C(=O)c2ccc(S(=O)(=O)c3ccc4c(c3)C(=O)C(C(=O)COC(C)(C)C)C4=O)cc2C1=O (stereo not shown)
(A) 5.77

(Q) Give recorded pIC50. O=C(NCc1ccco1)C1C(=O)c2ccc(S(=O)(=O)c3ccc4c(c3)C(=O)C(C(=O)NCc3ccco3)C4=O)cc2C1=O (stereo not shown)
(A) 5.85

----------
Biological target: human PF4 (Homo sapiens)
Construct: PF4 is a 70 amino acid, lysine-rich 7.8 kDa platelet-specific protein; made in house; host or cells: Escherichia coli BL21DE3 pLysS (pT7-7) and/or Drosophila S2 cells
Sequence (P02776 32-101): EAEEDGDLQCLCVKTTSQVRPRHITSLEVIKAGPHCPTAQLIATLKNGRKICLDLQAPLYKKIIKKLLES
Experiment: Inhibition of PF4 tetramer formation (BS3 cross-linking, SDS-PAGE)
Type: biochemical
Conditions: read-out: IC50 of PF4 tetramer formation inhibition
experimentalEndpoint: pIC50
By convention, pIC50 is the negative base-10 log of a molar concentration.

{"columns": ["compound", "pIC50"],
 "data": [
  ["CO[C@H](C)[C@H](N)C(=O)C1C(=O)c2ccc(C(=O)c3ccc4c(c3)C(=O)C(C(=O)[C@@H](N)[C@@H](C)OC)C4=O)cc2C1=O (stereo partly drawn) [Example 128]", 5.11],
  ["CC[C@H](C)[C@H](NC(=O)OC(C)(C)C)C(=O)C1C(=O)c2ccc(S(=O)(=O)c3ccc4c(c3)C(=O)C(C(=O)[C@@H](NC(=O)OC(C)(C)C)[C@@H](C)CC)C4=O)cc2C1=O (stereo partly drawn) [Example 279]", 5.52],
  ["CC(C)OC(=O)N1CCC[C@H]1C(=O)C1C(=O)c2ccc(C(=O)c3ccc4c(c3)C(=O)C(C(=O)[C@@H]3CCCN3C(=O)OC(C)C)C4=O)cc2C1=O (stereo partly drawn) [Example 134]", 5.96],
  ["CC[C@H](NC(=O)OCc1ccccc1)C(=O)C1C(=O)c2ccc(S(=O)(=O)c3ccc4c(c3)C(=O)C(C(=O)[C@H](CC)NC(=O)OCc3ccccc3)C4=O)cc2C1=O (stereo partly drawn) [Example 166]", 5.47]
]}

Query compound follows.
(Q) Give recorded pIC50. O=C(O)CCC(=O)C1C(=O)c2ccc(C(=O)c3ccc4c(c3)C(=O)C(C(=O)CCC(=O)O)C4=O)cc2C1=O (stereo not drawn) [Example 130]
(A) 5.85

----------
pIC50 values, listed per item
Molecular target: human PF4 (Homo sapiens, UniProt P02776)
Construct: PF4 is a 70 amino acid, lysine-rich 7.8 kDa platelet-specific protein; made in house; host or cells: Escherichia coli BL21DE3 pLysS (pT7-7) and/or Drosophila S2 cells
Test: Inhibition of PF4 tetramer formation (BS3 cross-linking, SDS-PAGE)
Type: biochemical
Conditions: read-out: IC50 of PF4 tetramer formation inhibition
By convention, pIC50 is the negative base-10 log of a molar concentration.

{"columns": ["compound", "valueReported"],
 "data": [
  ["O=C(NC1CCS(=O)(=O)C1)C1C(=O)c2ccc(Oc3ccc4c(c3)C(=O)C(C(=O)NC3CCS(=O)(=O)C3)C4=O)cc2C1=O (stereo not shown)", 6.26],
  ["CSCC(=O)C1C(=O)c2ccc(Oc3ccc4c(c3)C(=O)C(C(=O)CSC)C4=O)cc2C1=O (stereo not shown)", 5.52],
  ["N#CC1C(=O)c2ccc(C(=O)c3ccc4c(c3)C(=O)C(C#N)C4=O)cc2C1=O (stereo not shown)", 5.52]
]}

Query compound follows.
(Q) Give recorded pIC50. CSCCCC(=O)C1C(=O)c2ccc(C(=O)c3ccc4c(c3)C(=O)C(C(=O)CCCSC)C4=O)cc2C1=O (stereo not shown)
(A) 5.00

----------
Molecular target: human PF4 (Homo sapiens, UniProt P02776)
Construct: PF4 is a 70 amino acid, lysine-rich 7.8 kDa platelet-specific protein; made in house; host or cells: Escherichia coli BL21DE3 pLysS (pT7-7) and/or Drosophila S2 cells
Experiment: Inhibition of PF4 tetramer formation (BS3 cross-linking, SDS-PAGE)
Type: biochemical
experimentalEndpoint: pIC50
By convention, pIC50 is the negative base-10 log of a molar concentration.

(Q) Give recorded pIC50. CO[C@@H](C)C(=O)C1C(=O)c2ccc(Oc3ccc4c(c3)C(=O)C(C(=O)[C@H](C)OC)C4=O)cc2C1=O (stereo partly shown) [Example 248]
(A) 5.52

// data source = patent US20250281424A1
